These entries and their values trace back to patent US4017606A.

EXPERIMENTAL PROTOCOL: Serum half life of cytosine arabinoside in beagle dogs with or without tetrahydrouridine
CONDITION DETAILS: dog, in vivo; control dogs without tetrahydrouridine; 50 mg./kg. cytosine arabinoside intravenous
REPORTED PROPERTY: half-life

1. Nc1ccn([C@@H]2O[C@H](CO)[C@@H](O)[C@@H]2O)c(=O)n1 [cytosine arabinoside, 1-β-D-arabinofuranosylcytosine, reference compound]    1.1 to 1.33 h
